target: CXCR3-PK1 (Homo sapiens); construct: expressed in transfected cells; host or cells: HEK293 cells stably expressing beta-gal enzyme acceptor (PathHunter, DiscoveRx), transiently transfected; assay: β-arrestin 2 recruitment assay (PathHunter, DiscoveRx), CXCR3-PK1 construct; type: cell-based; details: HEK293-T cells, PathHunter, CXCR3-PK1; two to three experiments in triplicate
Sequence (P49682 whole entry): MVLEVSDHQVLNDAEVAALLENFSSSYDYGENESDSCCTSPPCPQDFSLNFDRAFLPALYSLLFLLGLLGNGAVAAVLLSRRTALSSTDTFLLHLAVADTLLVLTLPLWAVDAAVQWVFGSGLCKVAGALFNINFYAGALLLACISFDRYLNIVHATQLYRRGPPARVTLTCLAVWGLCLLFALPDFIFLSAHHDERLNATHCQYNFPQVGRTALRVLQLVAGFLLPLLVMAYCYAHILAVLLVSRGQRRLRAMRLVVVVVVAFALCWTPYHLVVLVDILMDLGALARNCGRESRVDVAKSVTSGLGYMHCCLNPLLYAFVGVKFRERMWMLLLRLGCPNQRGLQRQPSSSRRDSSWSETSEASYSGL
Property: CXCR3-PK1 pEC50 ± SEM

1) CC(C)(C)OC(=O)N[C@@H](CCCCNC(=O)[C@@H]1Cc2ccccc2CN1C(=O)CCC(=O)N1CCOCC1)C(=O)NCC(c1ccccc1)c1ccccc1; No effect
2) N[C@H](CCCCNC(=O)[C@@H]1Cc2ccccc2CN1C(=O)CCC(=O)c1ccccc1)C(=O)NCC(c1ccccc1)c1ccccc1.O=C(O)C(F)(F)F; 7.16±0.33
3) CC(C)(C)OC(=O)N[C@@H](CCCCNC(=O)[C@@H]1Cc2ccccc2CN1C(=O)CCC(=O)N1CCCCC1)C(=O)NCC(c1ccccc1)c1ccccc1; No effect
4) CC(C)(C)OC(=O)N[C@@H](CCCCNC(=O)[C@@H]1Cc2ccccc2CN1C(=O)CCC(=O)c1ccco1)C(=O)NCC(c1ccccc1)c1ccccc1; No effect

Now consider the entry below.
Kindly note: CXCR3-PK1 (Homo sapiens), CC(C)(C)OC(=O)N[C@@H](CCCCNC(=O)[C@@H]1Cc2ccccc2CN1C(=O)CCC(=O)c1ccc(S(C)(=O)=O)cc1)C(=O)NCC(c1ccccc1)c1ccccc1 , CXCR3-PK1 pEC50 ± SEM value reported: No effect
